Tested on: HOP-18 NSCLC
protocol_text: NCI tumour cell line growth inhibition, 48 h
Entries and their measured TGI follow.
reported_endpoint: TGI

>>> measured_result("O=C(CCC(=O)Nc1ccc(Cl)c(Cl)c1)CC(=O)c1ccc(Br)cc1")
"> 100 µM"
>>> measured_result("N/N=C1\\C(=O)N(C2CCCCCC2)C(=O)C1C(=O)NC1CCCCCC1 (centres undefined)")
"91.4 µM"
>>> measured_result("CC(=O)Nc1ccc(C(=O)NN2C(=O)C(Cl)/C2=C/c2ccco2)cc1 (centres undefined)")
"> 100 µM"
>>> measured_result("COc1ccc(OC)c(NC(=O)CCC/C(CC(=O)c2ccc(O)c(OC)c2)=N\\Nc2nnc(C)n2N)c1")
"> 100 µM"

* * *

Test system: HS 578T breast
protocol_text: NCI tumour cell line growth inhibition, 48 h
Entries and their measured GI50 follow.
reported_endpoint: GI50

>>> measured_result("C=CCn1c(C)nc2ccc(Nc3nc(Nc4ccc(F)cc4)nc4ccccc34)cc21")
"9.83 µM"
>>> measured_result("[C](#Cc1ccccc1)[Hg][C]#Cc1ccccc1")
"> 100 µM"
>>> measured_result("COc1ccccc1C#Cc1ccccc1C#CCCCCO")
"17 µM"
>>> measured_result("CCCCCCCCCCCCCCCCCC1=NC(C)(C)CN1CC(C)O (stereo unspecified)")
"14 µM"
>>> measured_result("O=S(=O)(NC1=NCCN1C(=S)SN1CCn2c1nsc2=S)c1cccc2ccccc12")
"25.5 µM"
>>> measured_result("Cn1c(C(=O)c2ccncc2)cc2ccccc21")
"65 µM"
>>> measured_result("CS(=O)(=O)CCNCc1cc(-c2cc3c(Nc4ccc(OCc5cccc(F)c5)c(Cl)c4)ncnc3s2)cs1")
"4.67 µM"
>>> measured_result("CCNc1cc(-c2cccc(OC(F)(F)F)c2)nc2ccc(N3CCCC3)cc12")
"1.72 µM"
>>> measured_result("COc1cc2nc(SCc3cc(OC)c(OC)c(OC)c3)n(Cc3ccccc3)c(=O)c2cc1OC")
"2.09 µM"
>>> measured_result("COc1ccc(-c2ccncc2)cc1C(N)=O")
"> 25 µM"
>>> measured_result("Cc1ncc(C(=O)Nc2ccc(CN3CCN(C)CC3)c(C(F)(F)F)c2)cc1C#Cc1cnc2cccnn12")
"0.625 µM"

* * *

The following are reported GI50 results, target or system U251 CNS.
reported_endpoint: GI50

>>> measured_result("O=S(=O)(NCCNc1nccc(-c2c(-c3ccc(F)c(O)c3)nc3sccn23)n1)c1ccc(F)cc1")
"4.75 µM"
>>> measured_result("O=C(O)c1ccc(NCn2nc(-c3ccccc3O)oc2=S)cc1")
"43.1 µM"
>>> measured_result("COc1cc2nc(SCc3cc(OC)c(OC)c(OC)c3)n(Cc3ccccc3)c(=O)c2cc1OC")
"3.64 µM"
>>> measured_result("Nc1ccccc1C#C/C=C\\C#Cc1ccc(OCCCNC(=O)c2cc3ccccc3[nH]2)cc1")
"12.5 µM"
>>> measured_result("Cn1c(-c2c(N)n(Nc3cccc(Cl)c3)c3nc(C#N)c(C#N)nc23)nc2ccccc21")
"7.92 µM"
>>> measured_result("COc1ccccc1C#Cc1ccccc1C#CCCCCO")
"18.7 µM"
>>> measured_result("COc1cc(OC)c(C(=O)/C=C/c2cc3c(cc2OCc2ccccc2)OC(C)(C)CC3)cc1CC=C(C)C")
"4.03 µM"
>>> measured_result("O=S(=O)(NC1=NCCN1C(=S)SN1CCn2c1nsc2=S)c1cccc2ccccc12")
"20.6 µM"
>>> measured_result("COc1cc(F)c(F)c(Nc2ccc(I)cc2F)c1NS(=O)(=O)C1(C[C@H](O)CO)CC1")
"2.09 µM"
